Biological target: B1 receptor (Oryctolagus cuniculus)
Sequence (P48748 1-352): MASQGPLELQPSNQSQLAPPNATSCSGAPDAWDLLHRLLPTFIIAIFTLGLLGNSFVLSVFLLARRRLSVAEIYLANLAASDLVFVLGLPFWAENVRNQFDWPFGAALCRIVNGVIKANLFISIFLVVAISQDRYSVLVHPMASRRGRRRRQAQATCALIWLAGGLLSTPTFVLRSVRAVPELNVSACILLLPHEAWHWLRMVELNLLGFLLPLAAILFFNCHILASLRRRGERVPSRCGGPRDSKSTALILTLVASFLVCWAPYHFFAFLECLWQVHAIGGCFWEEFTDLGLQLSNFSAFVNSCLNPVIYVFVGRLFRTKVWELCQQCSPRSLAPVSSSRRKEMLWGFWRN
Assay: cell-based
Details: Rb.A. pA2, apparent affinity as antagonist vs desArg9BK; antagonist applied 10 min before; Inactive = no detectable antagonistic effect at ≦ 10 μg/ml
Non-standard residues stand in square brackets, D forms with d. Residues, ends and D or L forms follow the SMILES beside them. d2Nal = N[C@H](Cc1ccc2ccccc2c1)C(=O)O; dTic = O=C(O)[C@H]1Cc2ccccc2CN1; NMeA = CN[C@@H](C)C(=O)O

| Molecule | Units Of Measure | Kb |
| --- | --- | --- |
| CC[C@H](C)[C@H](NC(=O)[C@@H](Cc1ccc2ccccc2c1)NC(=O)[C@H](C)N(C)C(=O)[C@H](Cc1ccccc1)NC(=O)CNC(=O)[C@@H]1CCCN1C(=O)[C@@H]1CCCN1C(=O)[C@H](CCCNC(=N)N)NC(=O)[C@H](CCCCN)NC(C)=O)C(=O)O [Compound 22] (Ac-KRPPGF[NMeA][d2Nal]I-OH; C-terminus assumed) | µM | 0.537 |
| CC[C@H](C)[C@H](NC(=O)[C@@H](Cc1ccc2ccccc2c1)NC(=O)[C@H](CO)NC(=O)[C@H](Cc1ccccc1)NC(=O)CNC(=O)[C@@H]1CCCN1C(=O)[C@@H]1CCCN1C(=O)[C@H](CCCN=C(N)N)NC(=O)[C@H](CCCCN)NC(C)=O)C(=O)O [Compound 19, AcLys(D-βNal^7, Ile^8)desArg^9BK] (Ac-KRPPGFS[d2Nal]I-OH) | µM | 0.00398 |
| CC(C)C[C@H](NC(=O)[C@H]1Cc2ccccc2CN1C(=O)[C@H](CO)NC(=O)[C@H](Cc1ccccc1)NC(=O)CNC(=O)[C@@H]1CCCN1C(=O)[C@@H]1CCCN1C(=O)[C@H](CCCNC(=N)N)NC(=O)[C@@H](N)CCCCN)C(=O)O [Compound 10, Lys(D-Tic^7, Leu^8)desArg^9BK] (H-KRPPGFS[dTic]L-OH; N-terminus and C-terminus assumed) | µM | 0.316 |

###

test system: angiotensin-converting enzyme (ACE); construct: purified angiotensin-converting enzyme (ACE) from rabbit lungs; purchased Sigma, St-Louis, Mo; host or cells: purified from rabbit lungs; assay: Metabolic degradation by purified angiotensin-converting enzyme, HPLC analysis; format: in vitro ADME, rabbit; details: rabbit, isolated enzyme ace, pH 7.5
Non-standard residues stand in square brackets, D forms with d. Residues, ends and D or L forms follow the SMILES beside them. Hyp = O=C(O)[C@@H]1C[C@@H](O)CN1; dTic = O=C(O)[C@H]1Cc2ccccc2CN1
Observable: metabolised at 0.5 h (%)

| Compound | Study Target | Observable | Measured Result |
| --- | --- | --- | --- |
| N=C(N)NCCC[C@@H](N)C(=O)N[C@@H](CCCNC(=N)N)C(=O)N1CCC[C@H]1C(=O)N1C[C@H](O)C[C@H]1C(=O)NCC(=O)N[C@@H](Cc1ccccc1)C(=O)N[C@@H](CO)C(=O)N1Cc2ccccc2C[C@@H]1C(=O)N[C@@H](Cc1ccccc1)C(=O)O [Compound 16, D-Arg(Hyp^3, D-Tic^7)desArg^9BK] (H-[dR]RP[Hyp]GFS[dTic]F-OH; N-terminus and C-terminus assumed) | angiotensin-converting enzyme (ACE) | metabolised at 0.5 h | 0 |
| CC(C)C[C@H](NC(=O)[C@H]1Cc2ccccc2CN1C(=O)[C@H](CO)NC(=O)[C@H](Cc1ccccc1)NC(=O)CNC(=O)[C@@H]1CCCN1C(=O)[C@@H]1CCCN1C(=O)[C@@H](N)CCCNC(=N)N)C(=O)O [Compound 8, (D-Tic^7, Leu^8)desArg^9BK] (H-RPPGFS[dTic]L-OH; N-terminus and C-terminus assumed) | angiotensin-converting enzyme (ACE) | metabolised at 0.5 h | 0 |
| CC(=O)N[C@@H](CCCCN)C(=O)N[C@@H](CCCNC(=N)N)C(=O)N1CCC[C@H]1C(=O)N1CCC[C@H]1C(=O)NCC(=O)N[C@@H](Cc1ccccc1)C(=O)N[C@@H](CO)C(=O)N1Cc2ccccc2C[C@@H]1C(=O)N[C@@H](CC(C)C)C(=O)O [Compound 11, AcLys(D-Tic^7, Leu^8)desArg^9BK] (Ac-KRPPGFS[dTic]L-OH; C-terminus assumed) | angiotensin-converting enzyme (ACE) | metabolised at 0.5 h | 0 |
